system: micturition reflex (rhythmic bladder contractions); assay: Inhibition of micturition reflex (rhythmic bladder contractions) in anesthetized rats; assay type: in vivo, male wister rats; conditions: Rattus norvegicus, iv; read-out: ED3 (dose at which rhythmic bladder contractions disappeared in three (3) minutes)
Structures can show the parent of a compound that is named as a salt.
property: ED (3 min disappearance of contractions) (mg/kg)
State just the number; it will be interpreted in mg/kg.

Incoming: Output ED (3 min disappearance of contractions) of CC(CN1CCCC1)C(=O)c1ccc(C2CCCCC2)cc1 (stereo not drawn)
Outgoing: 2.2

Incoming: Output ED (3 min disappearance of contractions) of Cc1c(-c2ccccc2)oc2c(C(=O)OCCN3CCCCC3)cccc2c1=O [flavoxate-HCl, reference compound]
Outgoing: 1.4

Incoming: Output ED (3 min disappearance of contractions) of CC(CN1CCCCCC1)C(=O)c1ccc(F)cc1 (stereo not drawn)
Outgoing: 2.7

Incoming: Output ED (3 min disappearance of contractions) of COc1ccc(C(=O)C(C)CN2CCCC2)c(C)c1C (stereo not drawn)
Outgoing: 0.25

Incoming: Output ED (3 min disappearance of contractions) of CCc1ccc(C(=O)C(C)CN2CCCC2)cc1 (stereo not drawn)
Outgoing: 2.2

The measurements presented in this section are drawn from patent US4912116A.
